- ASSAY: Rat pharmacokinetic assay
- Format: in vivo
- EXPERIMENTAL PARAMETERS: female, rat, plasma; SD rats, oral gavage 50 mg/kg; read-out: AUC0-24 h
MEASURE: AUC(0-t) (ng·h/mL)

A. COc1cccc(-c2c(C)n(Cc3c(F)cccc3C(F)(F)F)c(=O)n(C[C@H](NCCCC(=O)O)c3ccccc3F)c2=O)c1F
B. COc1cccc(-c2c(C)n(Cc3c(F)cccc3C(F)(F)F)c(=O)n(C[C@H](NCCCC(=O)[O-])c3ccccc3)c2=O)c1F.[Na+] [Elagolix Sodium, reference compound]
Hi! Which is lower in terms of AUC(0-t), the first one A or the second one B ? Reply with the label of the item you choose.
B
(B: 4830 ng·h/mL, A: 16300 ng·h/mL)

* * *

- ASSAY: Mouse pharmacokinetic assay
- Type: in vivo
- EXPERIMENTAL PARAMETERS: female, mouse, plasma; ICR mice, intravenous injection 10 mg/kg
MEASURE: AUC(0-t) (ng·h/mL)
A number alone suffices; assume ng·h/mL.

Fill in: AUC(0-t) of COc1cccc(-c2c(C)n(Cc3c(F)cccc3C(F)(F)F)c(=O)n(C[C@H](NCCCC(=O)O)c3ccccc3F)c2=O)c1F is ___
3240

* * *

- ASSAY: Rat pharmacokinetic assay
- Type: in vivo
- EXPERIMENTAL PARAMETERS: female, rat, plasma; SD rats, intravenous injection 25 mg/kg
MEASURE: Cmax (ng/mL)

a. COc1cccc(-c2c(C)n(Cc3c(F)cccc3C(F)(F)F)c(=O)n(C[C@H](NCCCC(=O)[O-])c3ccccc3)c2=O)c1F.[Na+] [Elagolix Sodium, reference compound]
b. COc1cccc(-c2c(C)n(Cc3c(F)cccc3C(F)(F)F)c(=O)n(C[C@H](NCCCC(=O)O)c3ccccc3F)c2=O)c1F
Hi! Which is lower in terms of Cmax, the first one a or the second one b ? Reply with the label of the item you choose.
a

* * *

- ASSAY: Rat pharmacokinetic assay
- Type: in vivo
- EXPERIMENTAL PARAMETERS: female, SD, rat, plasma, oral, 50 mg/kg, SD rats, oral gavage 50 mg/kg vs intravenous 25 mg/kg; read-out: F (absolute bioavailability)
MEASURE: bioavailability (%)

A. COc1cccc(-c2c(C)n(Cc3c(F)cccc3C(F)(F)F)c(=O)n(C[C@H](NCCCC(=O)[O-])c3ccccc3)c2=O)c1F.[Na+] [Elagolix Sodium, reference compound]
B. COc1cccc(-c2c(C)n(Cc3c(F)cccc3C(F)(F)F)c(=O)n(C[C@H](NCCCC(=O)O)c3ccccc3F)c2=O)c1F
Sort A and B by bioavailability descending and give the first. Reply with the label of the item you choose.
B
(B: 51.9%, A: 23.6%)

* * *

- ASSAYED TARGET: recombinant human gonadotropin-releasing hormone receptor (GnRHR) (Homo sapiens)
- Sequence (P30968 1-328): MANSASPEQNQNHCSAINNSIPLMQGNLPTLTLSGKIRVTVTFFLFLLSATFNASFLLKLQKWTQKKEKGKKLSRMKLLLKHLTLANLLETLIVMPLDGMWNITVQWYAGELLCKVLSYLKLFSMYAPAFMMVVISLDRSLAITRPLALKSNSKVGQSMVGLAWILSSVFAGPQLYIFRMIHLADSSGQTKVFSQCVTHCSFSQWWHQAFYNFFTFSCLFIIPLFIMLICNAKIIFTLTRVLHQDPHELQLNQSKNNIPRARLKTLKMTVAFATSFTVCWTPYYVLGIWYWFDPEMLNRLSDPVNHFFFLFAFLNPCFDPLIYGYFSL
- ASSAY: FLIPR calcium flux assay in CHO-K1/GNRHR/Gα15 cells
- EXPERIMENTAL PARAMETERS: Buserelin EC80 agonist, read-out: EC50, inhibition of intracellular calcium release
MEASURE: IC50 (nM)
A number alone suffices; assume nM.

Fill in: IC50 of COc1cccc(-c2c(C)n(Cc3c(F)cccc3C(F)(F)F)c(=O)n(C[C@H](NCCCC(=O)O)c3ccccc3F)c2=O)c1F [Compound G201] is ___
37.6

* * *

- ASSAY: Mouse pharmacokinetic assay
- Type: in vivo
- EXPERIMENTAL PARAMETERS: female, mouse, plasma; ICR mice, oral administration 10 mg/kg
MEASURE: AUC(0-t) (ng·h/mL)
A number alone suffices; assume ng·h/mL.

Fill in: AUC(0-t) of COc1cccc(-c2c(C)n(Cc3c(F)cccc3C(F)(F)F)c(=O)n(C[C@H](NCCCC(=O)O)c3ccccc3F)c2=O)c1F is ___
1010
